// provenance: PubChem BioAssay (NCI)

Task for the reader: assign each of the following molecules its reported TGI.
- Tested on: HCC-2998 colon
- ASSAY_NAME: NCI tumour cell line growth inhibition, 48 h

INSERT INTO results (molecule, measure_name, test_value) VALUES
  ('Fc1cnc(NC2CC2)nc1-c1cnc2ccc(N3CCOCC3)cn12', 'TGI', '2.62 µM'),
  ('O=c1[nH]c(=O)n(C2CC(O)C(CO)O2)c2nc3cc4ccccc4cc3nc12 (configuration not stated)', 'TGI', '> 100 µM'),
  ('COc1ccc(C2C(Cl)C(=O)N2NC(=O)c2ccc(N)cc2)cc1 (configuration not stated)', 'TGI', '> 100 µM'),
  ('CCN(CC)C(=S)N/N=C(\C)c1cccc(C)n1', 'TGI', '9.6 µM'),
  ('O=C1NC2C(=O)N(Cc3ccccc3)C(=O)C2N1 (configuration not stated)', 'TGI', '> 100 µM');

Record TGI for all entries; do not skip any.
1. CN(C)c1ccc(C(=O)NCCCCCCC(=O)NO)cc1
2. CCOC(=O)C1(C)CCc2sc(N)c(C#N)c21 (configuration not stated)
3. COc1ccc2[nH]c(S(=O)(=O)N3CC(CCl)c4ccc(N)cc43)cc2c1 (configuration not stated)
4. c1ccc2c(c1)nc1n2sc2nc3ccccc3n21
5. NCCN.NCCN.[Cl-].[O]=[Os+2]=[O]
6. COc1nc(N)c(C#N)c(C#N)c1C#N

Result:
1: 1.48 µM; 2: > 100 µM; 3: 14.9 µM; 4: > 100 µM; 5: > 100 µM; 6: > 10 µM

Ask: So what TGI did COc1ccc(C(=O)c2cc(OC)c3c(c2)OCO3)cc1O get with HCC-2998 colon?
Result: > 31.5 µM
